I'd appreciate it if you could supply IC50 values for the items below.
Target: Polyunsaturated fatty acid 5-lipoxygenase (Homo sapiens, UniProt P09917)
Sequence (P09917 whole entry): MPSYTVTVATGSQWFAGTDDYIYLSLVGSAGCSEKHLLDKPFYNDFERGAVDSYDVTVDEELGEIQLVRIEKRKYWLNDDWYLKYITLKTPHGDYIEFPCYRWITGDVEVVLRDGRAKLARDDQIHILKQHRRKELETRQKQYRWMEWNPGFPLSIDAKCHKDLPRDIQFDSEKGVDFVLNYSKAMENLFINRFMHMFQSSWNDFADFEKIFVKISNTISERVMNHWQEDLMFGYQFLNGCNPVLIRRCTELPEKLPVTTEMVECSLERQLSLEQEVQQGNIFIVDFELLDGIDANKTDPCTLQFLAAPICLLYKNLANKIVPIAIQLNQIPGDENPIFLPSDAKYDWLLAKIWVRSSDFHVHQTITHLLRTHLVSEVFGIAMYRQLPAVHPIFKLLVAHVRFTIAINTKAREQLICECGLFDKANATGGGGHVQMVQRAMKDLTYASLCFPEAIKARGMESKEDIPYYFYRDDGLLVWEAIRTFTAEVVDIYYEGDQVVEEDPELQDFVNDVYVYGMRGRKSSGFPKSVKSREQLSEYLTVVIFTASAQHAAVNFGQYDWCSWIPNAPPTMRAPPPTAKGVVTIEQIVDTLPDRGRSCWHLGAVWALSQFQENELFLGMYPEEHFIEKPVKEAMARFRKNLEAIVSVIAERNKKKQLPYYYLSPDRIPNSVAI
Assay: Inhibition of human recombinant 5-lipoxygenase in cell-free system preincubated for 10 mins before substrate arachidonic acid addition measured after 10 mins by RP-HPLC method
Answers are plain numbers, in µM.

[[record]]
smiles_representation = "CN(C)c1ccc2cc(S(=O)(=O)Nc3ccc(-c4ccc(-c5cn(Cc6ccc(C(=O)O)cc6[N+](=O)[O-])nn5)cc4)cc3)ccc2c1"
unit_of_measure = "µM"
recorded_measurement = 6.1


Turning now to a further compound:
State the recorded IC50 for this entry: `O=C(O)c1ccc(Cn2cc(-c3ccc(-c4ccccc4COc4cc(C(F)(F)F)ccc4Cl)cc3)nn2)c([N+](=O)[O-])c1`
2
